# System: α2β2γ1 GABAA receptor subtype (Homo sapiens (Human), UniProt P47869+Q8N1C3)
# Assay method text: Two-electrode voltage clamp electrophysiology in Xenopus oocytes expressing GABAA receptors (modulation of GABA EC20 current)
# Format: cell-based
# Reported conditions: % modulation of GABA EC20 = 100*(Fold increase-1); α2β2γ1 oocytes; compound at approx. 30-fold Ki
Exercise: for every item that follows, state its recorded Efficacy (GABA)%.
Report the figure in % without appending any unit label.

Consider the molecule CC1CN(C(=O)c2cn3c(n2)[C@H](C)N=C(c2ncccc2F)c2c-3ccc(C(F)(F)F)c2Cl)C1 [Example 163] tested on α2β2γ1 GABAA receptor subtype (Homo sapiens (Human), UniProt P47869+Q8N1C3); state its Efficacy (GABA)%. 136

Report value: Efficacy (GABA)%, system: α2β2γ1 GABAA receptor subtype (Homo sapiens (Human), UniProt P47869+Q8N1C3), molecule: [2H]C([2H])([2H])OC1CN(C(=O)c2nc3n(n2)-c2ccc(Cl)c(Cl)c2C(c2c(F)cccc2F)=N[C@H]3C)C1 [Example 17] 44

Write down the reported Efficacy (GABA)% (system: α2β2γ1 GABAA receptor subtype (Homo sapiens (Human), UniProt P47869+Q8N1C3)) of C[C@@H]1N=C(c2c(F)cccc2F)c2c(ccc(Cl)c2Cl)-n2nc(C(=O)N3CC(F)C3)nc21 [Example 40] 89

Report value only: Efficacy (GABA)%, α2β2γ1 GABAA receptor subtype (Homo sapiens (Human), UniProt P47869+Q8N1C3), COCc1cn2c(n1)CN=C(c1c(F)cccc1F)c1c-2ccc(Cl)c1Cl [Example 5] 78

Consider the molecule COC1CN(C(=O)c2nc3n(n2)-c2ccc(C(F)(F)F)c(Cl)c2C(c2c(F)cccc2F)=NC3)C1 [Example 37] tested on α2β2γ1 GABAA receptor subtype (Homo sapiens (Human), UniProt P47869+Q8N1C3); state its Efficacy (GABA)%. 47

Please respond with reported Efficacy (GABA)% (system α2β2γ1 GABAA receptor subtype (Homo sapiens (Human), UniProt P47869+Q8N1C3)) for C[C@@H]1N=C(c2c(F)cccc2F)c2c(ccc(C(F)(F)F)c2Cl)-n2c(CO)cnc21 [Example 132] . 105

For α2β2γ1 GABAA receptor subtype (Homo sapiens (Human), UniProt P47869+Q8N1C3), give Efficacy (GABA)% of the listed molecule: C[C@@H]1N=C(c2c(F)cccc2F)c2c(ccc(Cl)c2Cl)-n2nc(C(=O)N3CC[C@@H](O)C3)nc21 [Example 47] 74
